B1: Zinc finger homeobox protein 4, residues 2183 to 2238; numbered along this chain, Q86UP3 (parent)
chain: SSRTRFTDYQLRVLQDFFDTNAYPKDDEIEQLSTVLNLPTRVIVVWFQNARQKARK

Variants of: B1
Assay notes: abundance fitness (aPCA) (normalised: wild type 0, dead -1); higher = more abundant; growth selection in yeast, the domain comes from the species named
Condition description: Homo sapiens
Tag: yes (1) if measured abundance fitness is not below -0.2, no (0) if it is.

Solved cases below.
In [3]: df
Out[3]:
   mutation_code  category
0            R5H   yes (1)
1           L11D   yes (1)
2           A22E   yes (1)
3           D19E    no (0)
4            Y9N   yes (1)
5            R3K   yes (1)

Input: Is abundance fitness at least -0.2? Consider N21Y
Output: no (0)

Input: Hello, I need to know if E28N has measured abundance fitness not below -0.2. Thanks!
Output: no (0)
